# targetOfAssay: human recombinant KAT-II (Homo sapiens (Human), UniProt Q8N5Z0)
# Sequence (Q8N5Z0 30-425): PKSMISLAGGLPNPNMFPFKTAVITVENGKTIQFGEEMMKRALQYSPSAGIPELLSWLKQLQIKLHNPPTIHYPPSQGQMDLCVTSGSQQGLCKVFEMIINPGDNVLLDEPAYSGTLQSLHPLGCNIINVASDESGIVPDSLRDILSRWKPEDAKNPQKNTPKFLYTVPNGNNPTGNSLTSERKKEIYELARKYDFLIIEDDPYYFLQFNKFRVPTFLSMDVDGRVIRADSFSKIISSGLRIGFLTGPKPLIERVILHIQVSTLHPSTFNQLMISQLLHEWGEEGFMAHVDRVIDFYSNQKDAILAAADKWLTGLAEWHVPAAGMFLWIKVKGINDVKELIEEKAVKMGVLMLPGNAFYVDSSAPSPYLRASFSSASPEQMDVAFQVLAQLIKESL
# assaySummary: KAT-II inhibitory test
# conditionNotes: 3.0 μmol/L kynurenine, 37° C., 1 hr, pH 8.0; kynurenic acid quantified by HPLC
pIC50: −log10 of the molar value.
quantityName: pIC50

Consider the worked cases shown below.
Exam item: Assign pIC50 to the following record: O=C(NCc1ccccc1)[C@H]1CCCN1c1nc2c(=O)[nH]c(C3CC3)c(Cl)c2s1 [Example 623]
Marked response: 7.66

Exam item: Name the recorded pIC50 of the item COc1ccc(Cn2c(C(C)(C)F)nc3sc(N4CCC[C@@H]4C(=O)NCc4ccccc4)nc3c2=O)c(OC)c1 [Example 414] in your answer.
Marked response: 7.37

Exam item: Give pIC50 for the following molecule: O=C(Oc1ccccc1)N1CCC[C@@H]1c1nc2c(=O)[nH]c(C3CCC(F)(F)CC3)nc2s1 [Example 74]
Marked response: 7.08

Exam item: For the molecule O=C(Oc1ccccc1)N1CCC[C@@H]1c1nc2c(=O)[nH]c(C(F)(F)F)cc2s1 [Example 138] , report pIC50.
Marked response: 6.41

I. CN1CCC(n2c(C(F)(F)F)nc3sc(N4CCC[C@@H]4C(=O)NCc4ccccc4)nc3c2=O)CC1 [Example 264]
II. CCCc1cc(=O)n2nc(N3CCC[C@@H]3C(=O)NC3(c4ccccc4)CC3)ccc2n1 [Example 718]
III. Cc1noc(-c2nc3sc([C@H]4CCCN4C(=O)Oc4ccccc4)nc3c(=O)[nH]2)n1 [Example 120]
IV. CCc1nn(CC)c(=O)c2nc(N3CCC[C@@H]3C(=O)NCc3ccccc3)sc12 [Example 612]
Exam item: Task for the reader: rank each entry by its pIC50, from the minimum upward. Labels, requested order.
Marked response: II, I, IV, III
